# Protocol description: Half life by its biological oxidation in presence of horse radish […]
# Format: ADME
# Conditions used: horseradish, horseradish peroxidase

Structure: Cc1sc(N)c(C(=O)c2cccc(C(F)(F)F)c2)c1C
half-life: < 1 min
--
Structure: Nc1sc2c(c1C(=O)c1ccc3ccccc3c1)CCCC2
half-life: 1.33 min
--
Structure: Nc1sc2c(c1C(=O)c1ccc(-c3ccccc3)cc1)CCCC2
half-life: < 1 min

* * *

# Protocol description: Half life by its biological oxidation in presence of human liver microsomes
# Type: ADME, Microsome
Measured half-life values are reported for all entries that follow.

Structure: Nc1sc2c(c1C(=O)c1ccc(-c3ccccc3)cc1)CCCC2
half-life: < 1 min
//
Structure: Cc1sc(N)c(C(=O)c2cccc(C(F)(F)F)c2)c1C
half-life: < 1 min
//
Structure: Nc1sc2c(c1C(=O)c1ccc3ccccc3c1)CCCC2
half-life: < 1 min
